Ref: the supplement of paper PMC3334620

# target: Sut1 (UniProt P53032)
# Sequence: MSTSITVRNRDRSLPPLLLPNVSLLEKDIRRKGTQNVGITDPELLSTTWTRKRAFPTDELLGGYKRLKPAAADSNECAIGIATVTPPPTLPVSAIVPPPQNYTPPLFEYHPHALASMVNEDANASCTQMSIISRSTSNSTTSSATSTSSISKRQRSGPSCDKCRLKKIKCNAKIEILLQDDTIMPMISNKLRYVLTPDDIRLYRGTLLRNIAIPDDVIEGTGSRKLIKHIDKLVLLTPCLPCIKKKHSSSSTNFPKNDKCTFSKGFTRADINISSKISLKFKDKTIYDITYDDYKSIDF
# assayText: PBM E-score (8-mer binding enrichment) (E-score (-0.5 to 0.5)); higher = stronger / more preferred TF binding
# conditionParameters: protein concentration: 200 nM; construct: GST-full length
The full ranking holds about 33,000 sequences; the median of “E-score (-0.5 to 0.5)” is about -0.017, and the highest 2% start at about 0.3. The list comes from a sample in which the highest values are over-represented; it also holds close analogues and randomly drawn sequences.
quantity: PBM E-score
Please give the numeric answer without any surrounding text.

Some entries whose results are on file:
- seq: "ATCGGAAC"
  target: "Sut1 (UniProt P53032)"
  PBM E-score: 0.14
- seq: "AATTCCGT"
  target: "Sut1 (UniProt P53032)"
  PBM E-score: 0.317

IN: Find the recorded PBM E-score belonging to CACGGAAA and report it.
OUT: 0.188

IN: Please give the result for ATTTCAGC too.
OUT: 0.137

IN: Please give the result for CCAAGAAA too.
OUT: 0.241

IN: Please give the result for ATTTCCGC too.
OUT: 0.156

IN: Please give the result for AAATCCGT too.
OUT: 0.149

----------
# target: Sut1 (UniProt P53032)
# Sequence: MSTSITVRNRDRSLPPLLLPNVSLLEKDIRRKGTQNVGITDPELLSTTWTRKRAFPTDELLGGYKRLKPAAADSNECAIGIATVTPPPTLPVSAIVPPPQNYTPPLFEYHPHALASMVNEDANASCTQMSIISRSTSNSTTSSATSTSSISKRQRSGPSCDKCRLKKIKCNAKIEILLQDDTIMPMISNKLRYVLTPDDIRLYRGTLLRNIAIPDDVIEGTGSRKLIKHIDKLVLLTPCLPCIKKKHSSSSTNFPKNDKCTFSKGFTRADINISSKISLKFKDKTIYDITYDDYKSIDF
# assayText: PBM E-score (8-mer binding enrichment) (E-score (-0.5 to 0.5)); higher = stronger / more preferred TF binding
# conditionParameters: protein concentration: 200 nM; construct: GST-full length
Over roughly 33,000 sequences, “E-score (-0.5 to 0.5)” has its median near -0.017; the highest 2% begin near 0.3. The sample holds the highest values, similar sequences and a random draw of the others, so the mix is not that of the screen.
The following ranges of PBM E-score define the classes used here: low value = under -0.09, medium value = from -0.09 up to 0.05, high value = 0.05 and over

Sample answers from the record:
- seq: "ATTAAGAC"
  classLabel: "high value"
- seq: "AGGCTGAC"
  classLabel: "low value"
- seq: "AGTACTCA"
  classLabel: "medium value"
- seq: "GCCGAGCC"
  classLabel: "medium value"
- seq: "CGCACATC"
  classLabel: "low value"

IN: Hello team, could you let me know which band the following sequence falls into: CGTACTAC
OUT: high value

IN: Please give the result for ATTTTGTG too.
OUT: high value

IN: Please give the result for CTCTCAGA too.
OUT: low value

IN: Please give the result for CGTACTCA too.
OUT: medium value

IN: Please give the result for CCTTTGAA too.
OUT: medium value
